target of assay: Gal(b1-4)GlcNAc(b1-3)Gal(b1-4)GlcNAc(b1-3)[Gal(b1-4)GlcNAc(b1-3)Gal(b1-4)GlcNAc(b1-6)]GalNAc
procedure text: glycan array binding signal (z-score within array); higher = stronger binding
experimental context: glycan notation: IUPAC condensed, linker removed
About 410 targets per protein were measured; listed, in parts, are those with the strongest signals and a random draw of the rest.
Field: glycan array binding signal (z-score). Provide a value for each of the binders that follow.
Number, no unit, nothing else.

[in] Using the record for TIM1 (protein) ADGIQSVKVGGEAGPSVTLPCHYSGAVTSMCWNRGSCSLFTCQNGIVWTNGTHVTYRKDTRYKLLGDLSRRDVSLTIENTAVSDSGVYCCRVEHRGWFNDMKITVSLEIVPPHHHHHH , report its glycan array binding signal (z-score).
[out] 2.45

[in] Request the reported glycan array binding signal (z-score) associated with ACA (Amaranthus caudatus) (protein) MAGLPVIMCLKSNNNQKYLRYQSDNIQQYGLLQFSADKILDPLAQFEVEPSKTYDGLVHIKSRYTNKYLVRWSPNHYWITASANEPDENKSNWACTLFKPLYVEEGNMKKVRLLHVQLGHYTQNYTVGGSFVSYLFAESSQIDTGSKDVFHVIDWKSIFQFPKRYVTFKGNNGKYLGVITINQLPCLQFGYDNLNDPKVAHEMFVTSNGTICIKSTYMNKFWRLSTDDWILVDGNDPRETNEAAALFRSDVHDFNVISLLNMQKTWFIKRFTSGKPGFINCMNAATQNVDETAILEIIELGSNN
[out] 5.24

[in] Reported glycan array binding signal (z-score) for XTP3-B-MRH1 (Homo sapiens), Q96DZ1 (protein) LLEPLFKQSSCSYRIESYWTYEVCHGKHIRQYHEEKETGQKINIHEYYLGNMLAKNLLFEKEREAEEKEKSNEIPTKNIEGQMTPYYPVGMGNGTPCSLKQNRPRSSTVMYICHPESKHEILSVAEVTTCEYEVVILTPLLCSHPKYRFRA : what is it?
[out] 1.07
